Value source: the array DNA melting data of Ke et al. (doi:10.1101/2024.01.08.574731)

I'd appreciate it if you could supply Tm values for the items below.
PROCEDURE_TEXT: melting temperature; fluorescence melt of hairpins on a sequencing array, two-state fit, raised by 9.35 °C to match UV melts
COND: sodium 0.088 M
Could you kindly put the unit after your number?

Consider the following illustrative entries.
GCGAGGCTTCGC ((((....)))) ... 66.7 °C
GCAGTTTCGAAAGAATGC (((..(((....)))))) ... 25.8 °C
GCGGCCGACCGC ((((....)))) ... 57.6 °C
GCCGAGCGAAAGCTTCGC ((..(((....)))..)) ... 49.2 °C
GGCTTACGAAAGTAGGCC (((.(((....))).))) ... 60.1 °C
GAAAAAGGAAACTTTTTC (((((((....))))))) ... 46 °C
GATAGGGCGAAAGCCATC (((..(((....)))))) ... 31.2 °C
CCCAGGAAACTGGG (((((....))))) ... 54.3 °C
CGTACGGAAACGTGACG ((((((....))).))) ... 41.1 °C
GGATGGTCGAAAGACTCC (((..(((....)))))) ... 32.9 °C

Record Tm for all entries; do not skip any.
1. GCGACGCGAAAGCTTTGC ((.(.((....)).).))
2. GATCGTGCTTACGATC ((((((....))))))
3. GCTACGCGAAAGCCTTGC ((.(.((....)).).))
4. GATCTAGAGGTAGATC ((((((....))))))
5. GCATAAGGAAACTCATGC ((((.((....)).))))
6. GCTAACGAAAGTTGAAGC ((((((....)))..)))

1: 44.7 °C; 2: 56.4 °C; 3: 29.6 °C; 4: 35.1 °C; 5: 30.7 °C; 6: 34.6 °C

Record Tm for all entries; do not skip any.
1. GGTCTTGCGAAAGCAACC (((..(((....))))))
2. GTAGTAGGAAACTACTGC (.(((((....))))).)
3. GAAACGGGAAACCGTCTC ((.((((....)))).))

28.8 °C
45.7 °C
32.9 °C

Record Tm for all entries; do not skip any.
1. GATCTGGTTTCAGATC ((((((....))))))
2. GTTAGACCGAAAGGTAAC (((..(((....))))))
3. GACCCGGGAAACCAGGTC ((((.((....)).))))
4. GGTGTGACGAAAGTCACC (((..(((....))))))
5. GCGTACTAACGC ((((....))))

["51.1 °C", "30.2 °C", "45.8 °C", "43.6 °C", "53 °C"]

Record Tm for all entries; do not skip any.
1. GCAAGGCGAAAGCCATGC (((.(((....))).)))
2. GCGTCCGAAAGGAACGC ((((((....))).)))

["57.9 °C", "64.9 °C"]
